Test system: HCT-15 colon
Assay: NCI tumour cell line growth inhibition, 48 h
Where a SMILES comes first, the peptide text is derived from it. The star is where a group is joined. Cbz = O=C(OCc1ccccc1)*
# Lookup of reported TGI keyed by entry
Result type: TGI

[[record]]
compound = "C=CCc1cccc2cc(C(=O)Nc3ccc(C)cc3)c(=N)oc12"
study_system = "HCT-15 colon"
result_type = "TGI"
measurement = "> 100 µM"

[[record]]
compound = "CC1(C)CCc2c(c(N=Nc3ccccc3F)c3ccccc3c2O)O1"
study_system = "HCT-15 colon"
result_type = "TGI"
measurement = "> 100 µM"

[[record]]
compound = "C/C=C\\C(CC(=O)NCCC1CN(C(=O)OCc2ccccc2)c2ccccc21)CC(=O)OC (centres undefined)"
study_system = "HCT-15 colon"
result_type = "TGI"
measurement = "> 100 µM"

[[record]]
compound = "COc1ccc(-c2cc(=O)c3cc(C)c(C)c(C(=O)O)c3o2)cc1"
study_system = "HCT-15 colon"
result_type = "TGI"
measurement = "> 100 µM"

[[record]]
compound = "CSc1nc(NC2OCC(OC(C)=O)C(OC(C)=O)C2OC(C)=O)c2c(n1)OCC2=O (centres undefined)"
study_system = "HCT-15 colon"
result_type = "TGI"
measurement = "> 100 µM"

[[record]]
compound = "COc1ccc2nc3c(cc2c1)C(=O)CC(c1ccccc1)C3 (centres undefined)"
study_system = "HCT-15 colon"
result_type = "TGI"
measurement = "> 100 µM"

[[record]]
compound = "N#Cc1ccc(OCCSCCCCCCCCCCSCCOc2ccc(C#N)cc2)cc1"
study_system = "HCT-15 colon"
result_type = "TGI"
measurement = "> 100 µM"

[[record]]
compound = "CC[O-].CC[O-].O=C([CH-]C(=O)c1ccccc1)CCCCCCC(=O)[CH-]C(=O)c1ccccc1.[Ti+4]"
study_system = "HCT-15 colon"
result_type = "TGI"
measurement = "> 100 µM"

[[record]]
compound = "COC(=O)C(CC(C)C)NC(=O)C(CCCN=C(N)N)NC(=O)OCc1ccccc1 (stereo not drawn) (Cbz-Arg-Leu-OMe; configuration not given here)"
study_system = "HCT-15 colon"
result_type = "TGI"
measurement = "> 100 µM"

[[record]]
compound = "C=CCOc1ccc(N)c([N+](=O)[O-])c1"
study_system = "HCT-15 colon"
result_type = "TGI"
measurement = "> 100 µM"

[[record]]
compound = "CCN1C(=O)N(CC)C2C1NN=c1s/c(=C\\c3ccc(C(F)(F)F)cc3)c(=O)n12 (centres undefined)"
study_system = "HCT-15 colon"
result_type = "TGI"
measurement = "> 35.6 µM"

[[record]]
compound = "O=C(C=Nc1ccccc1S)c1ccco1"
study_system = "HCT-15 colon"
result_type = "TGI"
measurement = "27.4 µM"

[[record]]
compound = "COC(=O)CCC(=O)c1ccc2c(c1)CC1(C2)Cc2ccc(C(=O)CCC(=O)OC)cc2C1"
study_system = "HCT-15 colon"
result_type = "TGI"
measurement = "> 100 µM"

[[record]]
compound = "O=C1c2ccccc2C(=O)c2c1oc1c2c(=O)[nH]c2ccc(Cl)cc21"
study_system = "HCT-15 colon"
result_type = "TGI"
measurement = "0.512 µM"


###

Tested on: HS 578T breast
Assay: NCI tumour cell line growth inhibition, 48 h; in the data active means GI50 below about 0.43 µM; inactive means the rest
Outcome codes: Yes (active), No (inactive)

[[record]]
compound = "CC1=C2[C@@H](CC1)[C@]1(C)O[C@@](C(C)C)(C[C@H]1OC(=O)CO)[C@H]2OC(=O)CCCc1ccccc1"
study_system = "HS 578T breast"
assigned_category = "No"

[[record]]
compound = "FC(F)(F)c1cc(NC(=S)N2c3ccccc3-n3cccc3C2c2cccnc2)cc(C(F)(F)F)c1 (configuration not stated)"
study_system = "HS 578T breast"
assigned_category = "No"

[[record]]
compound = "Cc1ccc(-c2nc(/C=N/Nc3cc(C)nc4ccc(Br)cc34)c(C)o2)cc1"
study_system = "HS 578T breast"
assigned_category = "No"

[[record]]
compound = "CCOC(=O)c1c2c(n3ccc(NC(=O)CCN4CCCCC4)cc13)C(=O)c1ncccc1C2=O"
study_system = "HS 578T breast"
assigned_category = "Yes"

[[record]]
compound = "COc1cc2c(/C=C3/C(=O)Nc4ccc(O)cc43)c(Cl)n(Cc3cc(OC)c(OC)c(OC)c3)c2cc1C"
study_system = "HS 578T breast"
assigned_category = "No"

[[record]]
compound = "S=C1SCN(Cc2ccccc2)CN1Cc1ccccc1"
study_system = "HS 578T breast"
assigned_category = "No"

[[record]]
compound = "COc1ccc2nc3c(cc2c1)C(=O)CC(c1ccccc1)C3 (configuration not stated)"
study_system = "HS 578T breast"
assigned_category = "No"


###

# Lookup of reported TGI keyed by entry
Test system: U251 CNS
Experiment: NCI tumour cell line growth inhibition, 48 h
Result type: TGI

[[record]]
compound = "O=C(O)/C=C/c1ccc(OS(=O)(=O)O)cc1"
study_system = "U251 CNS"
measurement = "> 100 µM"

[[record]]
compound = "CNS(=O)(=O)NNS(=O)(=O)c1ccc(F)cc1"
study_system = "U251 CNS"
measurement = "> 100 µM"

[[record]]
compound = "CC1(O)C2(c3ccccc3)CCC[N+]1(C)CC2 (stereo not drawn)"
study_system = "U251 CNS"
measurement = "> 100 µM"

[[record]]
compound = "COc1cc(/C=C2\\NC(=O)C3Cc4c(OC)c(C)c(OC)c(OC)c4C2N3C)c(OC)c(C)c1OC (stereo not drawn)"
study_system = "U251 CNS"
measurement = "> 100 µM"

[[record]]
compound = "CCOC(=O)Nc1ccc2c(c1)C(=O)N(CC)c1ccccc1O2"
study_system = "U251 CNS"
measurement = "> 100 µM"

[[record]]
compound = "Cc1ccc(N=C2OP(=O)(Nc3ccc(C)cc3)Oc3ccccc32)cc1 (stereo not drawn)"
study_system = "U251 CNS"
measurement = "> 100 µM"

[[record]]
compound = "CC(C)c1cccc(C(C)C)c1NC(=O)C(=O)C1CCC2=C(Sc3ccccc3N2)C1=O (stereo not drawn)"
study_system = "U251 CNS"
measurement = "> 100 µM"

[[record]]
compound = "CC[C@]1(Cc2ccc(OC)c(OC)c2)C2CC(C(=O)OC)ON2O[C@H](OCc2ccccc2)[C@@H]1OC(C)=O (stereo partly drawn)"
study_system = "U251 CNS"
measurement = "> 100 µM"


###

System: MALME-3M melanoma
Test: NCI tumour cell line growth inhibition, 48 h
Result type: TGI

[[record]]
molecule = "C=CCCCN1CCCCC1=S"
result_type = "TGI"
measurement = "> 100 µM"

[[record]]
molecule = "FC(F)(F)c1cc(NC(=S)N2c3ccccc3-n3cccc3C2c2cccnc2)cc(C(F)(F)F)c1 (stereo not given)"
result_type = "TGI"
measurement = "26.9 µM"

[[record]]
molecule = "COc1ccc(-c2cc(=O)c3cc(Cl)ccc3[nH]2)cc1"
result_type = "TGI"
measurement = "> 100 µM"

[[record]]
molecule = "COc1ccc(C2CC(c3ccc(OC)cc3O)=NN2c2ccc(S(N)(=O)=O)cc2)cc1 (stereo not given)"
result_type = "TGI"
measurement = "> 100 µM"

[[record]]
molecule = "O=C(O)CCSC(=O)Nc1cccc2ccccc12"
result_type = "TGI"
measurement = "> 100 µM"

[[record]]
molecule = "CC(=O)[CH-]C(C)=O.CC(=O)[CH-]C(C)=O.[Cl-].[O]=[V]"
result_type = "TGI"
measurement = "27.9 µM"

[[record]]
molecule = "C#CC(C)(C)OCCCCOc1cc(O)c2c(=O)c3ccccc3n(C)c2c1"
result_type = "TGI"
measurement = "> 100 µM"

[[record]]
molecule = "CN1c2c(nc(N)[nH]c2=O)NCC1CCNc1ccc(C(=O)NC(CCC(=O)O)C(=O)O)cc1 (stereo not given)"
result_type = "TGI"
measurement = "2770 µM"

[[record]]
molecule = "O=S1(=O)c2ccccc2N2C(c3ccccc3)=NOC2(c2ccccc2)CC1c1ccc(Br)cc1 (stereo not given)"
result_type = "TGI"
measurement = "> 100 µM"

[[record]]
molecule = "CCc1ccc(Cc2ccc(CC)c(NC(=O)C(=O)C3NC(=S)NC3=O)c2CC)c(CC)c1NC(=O)C(=O)C1NC(=S)NC1=O (stereo not given)"
result_type = "TGI"
measurement = "> 100 µM"


###

Tested on: SN12C renal
Assay: NCI tumour cell line growth inhibition, 48 h
# Lookup of reported TGI keyed by entry
Result type: TGI

[[record]]
molecule = "Cc1nc2ccccc2c(/C=C/c2ccccc2)c1C(=O)/C=C/c1ccc(C(F)(F)F)cc1"
result_type = "TGI"
measurement = "4.16 µM"

[[record]]
molecule = "O=c1c(C(c2ccc([N+](=O)[O-])cc2)c2c(O)c3ccccc3n(-c3ccccc3)c2=O)c(O)c2ccccc2n1-c1ccccc1"
result_type = "TGI"
measurement = "> 100 µM"

[[record]]
molecule = "CC(=O)OCCCCN1C(=O)CSc2ccccc21"
result_type = "TGI"
measurement = "> 100 µM"

[[record]]
molecule = "O=C1NC2(CCCC2)C2CCCCC12O (stereo not given)"
result_type = "TGI"
measurement = "> 100 µM"

[[record]]
molecule = "N#Cc1ccccc1NC(=O)C(=O)C(C(=O)c1ccncc1)C1OC(=O)c2ccccc21 (stereo not given)"
result_type = "TGI"
measurement = "> 100 µM"

[[record]]
molecule = "Fc1ccc(-c2ncn(CCCN3CCOCC3)c2-c2ccncc2)cc1"
result_type = "TGI"
measurement = "> 25 µM"

[[record]]
molecule = "CCN(CC)CCn1c(=O)c2cc(OC)c(OC)cc2c2ccc3cc4c(cc3c21)OCO4"
result_type = "TGI"
measurement = "20.2 µM"

[[record]]
molecule = "FC(F)(F)c1cc(NC(=S)N2c3ccccc3-n3cccc3C2c2cccnc2)cc(C(F)(F)F)c1 (stereo not given)"
result_type = "TGI"
measurement = "35.9 µM"

[[record]]
molecule = "C#CC(C)(C)OCCCCOc1cc(O)c2c(=O)c3ccccc3n(C)c2c1"
result_type = "TGI"
measurement = "> 100 µM"

[[record]]
molecule = "O=c1oc2cc(O)ccc2c2oc3cc(O)ccc3c12"
result_type = "TGI"
measurement = "> 88.7 µM"


Source of measurements: PubChem BioAssay (NCI)
